- Experiment: Inhibition of cathepsin A (unknown origin)
- Design: species or system Homo sapiens
Property label: IC50

IN: Bench note: what IC50 did CNC[C@@H](Cc1ccc(Cl)cc1)N(C)C(=O)C[C@H]1CCCN1C(=O)c1cncc2ccccc12 show?
OUT: > 44 µM

###

The following compounds have recorded pIC50 on Replicase polyprotein 1ab (Severe acute respiratory syndrome coronavirus 2).
pIC50 field: float, defined as -log10 of concentration (mol/L).

// below: answered compounds
compound=CN1C(=O)C[C@H]2CC3(CC3)CN2C(=O)c2cncc(c2)NCCCCCCNC(=O)[C@H]1Cc1ccc(Cl)cc1Cl assay_result=8.22
compound=CNC[C@@H](Cc1ccc(Cl)cc1)N(C)C(=O)C[C@H]1Cc2ccccc2N1C(=O)c1cncc(C)c1 assay_result=7.59
compound=O=C1C[C@H]2CCCN2C(=O)c2cncc(c2)/C=C/CCCCOC(=O)[C@@H](Cc2ccc(Cl)cc2)N1 assay_result=7.60
compound=CNC(=O)[C@H]1C/C=C/CCNc2cncc(c2)C(=O)N2CC3(CC3)C[C@@H]2CC(=O)N(C)[C@H](Cc2ccc(Cl)cc2Cl)C(=O)N1 assay_result=8.15
compound=CNC[C@@H](Cc1ccc(Cl)cc1)N(C)C(=O)C[C@H]1Cc2ccccc2N1C(=O)c1cncc2cccnc12 assay_result=7.80

IN: Bench note: what pIC50 did O=C1C[C@H]2CCCN2C(=O)c2cncc(c2)/C=C/CCCCCNC(=O)[C@@H](Cc2ccc(Cl)cc2)N1 show?
OUT: 7.92

IN: Bench note: what pIC50 did CC(C)O[C@@H]1C[C@@H]2CC(=O)N(C)[C@H](Cc3ccc(Cl)cc3Cl)C(=O)NCCCCC/C=C/c3cncc(c3)C(=O)N2C1 show?
OUT: 8.00

IN: Bench note: what pIC50 did CNC(=O)[C@@H](Cc1ccc(Cl)cc1)N1CCCCCC/C=C/c2cncc(c2)C(=O)N2c3ccccc3C[C@@H]2CC1=O show?
OUT: 7.72

IN: Bench note: what pIC50 did CNC(=O)[C@H]1Cc2cccc(c2)OC/C=C/c2cccc3c2CC(CC(=O)N1C)N3C(=O)c1cncc2cccnc12 (stereo not given in full) show?
OUT: 7.42

IN: Bench note: what pIC50 did COC[C@H]1CCCCCNc2cncc(c2)C(=O)N2CC3(CC3)C[C@@H]2CC(=O)N[C@H](Cc2ccc(Cl)cc2)C(=O)N1 show?
OUT: 8.30

IN: Bench note: what pIC50 did CO[C@@H]1C[C@@H]2CC(=O)N(C)[C@H](Cc3ccc(Cl)cc3Cl)C(=O)NCCCCC/C=C/c3cncc(c3)C(=O)N2C1 show?
OUT: 8.05

IN: Bench note: what pIC50 did CN1C(=O)C[C@H]2C[C@@H](C(F)(F)F)CN2C(=O)c2cncc(c2)/C=C/CCCCCNC(=O)[C@H]1Cc1ccc(Cl)cc1Cl show?
OUT: 7.96

IN: Bench note: what pIC50 did O=C1C[C@H]2CCCN2C(=O)c2cncc(c2)/C=C/CCCCCOC(=O)[C@@H](Cc2ccc(Cl)cc2)N1 show?
OUT: 7.74

IN: Bench note: what pIC50 did COC[C@H]1C/C=C/CCNc2cncc(c2)C(=O)N2CC3(CC3)C[C@@H]2CC(=O)N[C@H](Cc2ccc(Cl)cc2)C(=O)N1 show?
OUT: 8.30

IN: Bench note: what pIC50 did O=C1C[C@H]2CC3(CC3)CN2C(=O)c2cncc(c2)/C=C/CCCCCNC(=O)[C@@H](Cc2ccc(Cl)cc2Cl)N1 show?
OUT: 8.10

Origin of the recorded values: ChEMBL document CHEMBL6092207
